// provenance: the Human Domainome abundance scans (Beltran et al. 2025)

B1: Far upstream element-binding protein 1, residues 98 to 169; numbered along this chain, Q96AE4 (parent)
chain: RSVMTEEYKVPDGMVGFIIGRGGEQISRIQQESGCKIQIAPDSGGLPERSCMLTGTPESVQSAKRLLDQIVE

variants of: B1; test: abundance fitness (aPCA) (normalised: wild type 0, dead -1); higher = more abundant; growth selection in yeast, the domain comes from the species named; details: Homo sapiens
Each record's abundance fitness is compared with low: < -0.09; mid: ≥ -0.09 and < -0.03; high: ≥ -0.03 to give its class.

Q: Assign a category based on measured abundance fitness for Q69Y and give only the class name.
Ans: low

Q: Each variant maps to one class by abundance fitness. Which class for D42L ?
Ans: low

Q: Category of L66H , please.
Ans: mid

Q: # bin lookup: classify M4H by its abundance fitness
Ans: mid

Q: Band for the recorded abundance fitness of M4Q ?
Ans: mid

Q: Could you tell me which band G23P belongs to?
Ans: low

Q: Sort P41N into one of the categories.
Ans: mid

Q: Class label required: L46P
Ans: low

Q: Determine which band this variant sits in: K64E
Ans: low

Q: Given E58D , name the class its abundance fitness places it in.
Ans: high

Q: Kindly identify the class of D12M .
Ans: mid

Q: Dear colleague, I would appreciate it if you could identify the bin for R1Y and reply at your convenience.
Ans: high

Q: Class (by measured abundance fitness) for L66E
Ans: high

Q: Looking at M14Y , which class would you pick?
Ans: high

Q: Field: class (abundance fitness) — entry: L46H
Ans: high

Q: Exam item: assign T5L to the correct category.
Ans: low

Q: Lab note: which band did M52T land in?
Ans: mid

Q: Category of I70W , please.
Ans: high

Q: For I18V , which abundance fitness bin applies?
Ans: mid

Q: Lab note: which band did S33A land in?
Ans: mid

Q: Would you mind sorting S33C into the appropriate category?
Ans: low

Q: Which abundance fitness category applies to E32P here?
Ans: low

Q: Kindly state the category for this variant: I19T
Ans: high

Q: Bin? I39M
Ans: high

Q: Consider M52N . To which abundance fitness class does it belong?
Ans: mid
